System: MS751 cells
procedure.summary: MTT cell proliferation assay, MS751 cells
Assay type: cell-based, human
measurement.context: Homo sapiens, incubation approximately 64-72 hours, read-out: MTT Assay IC50, MS 751
recorded.metric: IC50

For orientation, consider the following solved cases.
molecule | IC50
Nc1ccc(/C=C/C(=O)NCc2ccc(-c3ccc(-c4ccc(C(=O)N5CCC(F)(F)CC5)cn4)cc3Cl)o2)cn1 [Compound A006] | < 1 µM
Nc1ccc(/C=C/C(=O)NCc2ccc(-c3ccc(-c4ccc(C(=O)N5CC(F)(F)C5)cc4)cc3C(F)(F)F)o2)cn1 [Compound A015] | < 1 µM
Nc1ccc(/C=C/C(=O)NCc2ccc(-c3cc4cc(C(=O)N5CCC(F)(F)CC5)cnc4cc3C(F)(F)F)o2)cn1 [Compound A026] | < 1 µM

For every item below, please supply its IC50.
1. Nc1ccc(/C=C/C(=O)NCc2ccc(-c3ccc(-c4ccc(C(=O)N5CCC(F)(F)CC5)cc4F)cc3-c3ccc(F)cc3)o2)cn1 [Compound A007]
2. Nc1ccc(/C=C/C(=O)NCc2ccc(-c3ccc(-c4ccc(C(=O)N5CCC(F)(F)CC5)cn4)cc3C(F)(F)F)s2)cn1 [Compound A005]
3. Nc1ccc(/C=C/C(=O)NCc2ccc(-c3c(C(F)(F)F)cc(-c4ccc(C(=O)N5CC(F)(F)C5)cn4)cc3C(F)(F)F)o2)cn1 [Compound A025]
4. Nc1ccc(/C=C/C(=O)NCc2ccc(-c3ccc(-c4ccc(C(=O)N5CCC(F)(F)CC5)cc4)cc3-c3cccc(Cl)c3)o2)cn1 [Compound A009]
5. Cc1c(CNC(=O)/C=C/c2ccc(N)nc2)sc(-c2ccc(-c3ccc(C(=O)N4CCC(F)(F)CC4)cc3)cc2-c2ccc(F)cc2)c1C [Compound A023]
6. Nc1ccc(/C=C/C(=O)NCc2nnc(-c3ccc(-c4ccc(C(=O)N5CC(F)(F)C5)cc4)cc3C(F)(F)F)o2)cn1 [Compound A018]
7. Nc1ccc(/C=C/C(=O)NCc2ccc(-c3ccc(-c4ccc(C(=O)N5CCC(F)(F)CC5)cc4)cc3-c3ccc(F)cc3)o2)cn1 [Compound A008]

1: < 1 µM; 2: < 1 µM; 3: < 1 µM; 4: < 1 µM; 5: 1 to 5 µM; 6: < 1 µM; 7: < 1 µM

Dear colleague, could you please provide IC50 for the molecules listed below?
1. Nc1ccc(/C=C/C(=O)NCc2cnc(-c3ccc(-c4ccc(C(=O)N5CC(F)C5)cc4F)cc3C(F)(F)F)o2)cn1 [Compound A020]
2. Cn1c(CNC(=O)/C=C/c2ccc(N)nc2)ccc1-c1ccc(-c2ccc(C(=O)N3CCC(F)(F)CC3)cc2)cc1-c1ccc(F)cc1 [Compound A-012]

["< 1 µM", "> 10 µM"]

Identify measured IC50 corresponding to Nc1ccc(/C=C/C(=O)NCc2ccc(-c3ccc(-c4ccc(C(=O)N5CCC(F)(F)CC5)cc4)cc3-c3ccc(F)cc3)[nH]2)cn1 [Compound A011] 1 to 5 µM

----------
Tested on: MS751 cells
procedure.summary: MTT cell proliferation assay, MS751 cells
Assay type: cell-based, human
measurement.context: Homo sapiens, incubation approximately 64-72 hours, read-out: MTT Assay IC50, MS 751
recorded.metric: IC50

Below are some compounds; for each one, tell me its IC50.
1. Nc1ccc(/C=C/C(=O)NCc2cnc(-c3ccc(-c4ccc(C(=O)N5CC(F)(F)C5)cc4)cc3C(F)(F)F)o2)cn1
2. Cc1cc(-c2ccc(-c3ccc(C(=O)N4CC(F)C4)cc3)cc2C(F)(F)F)sc1CNC(=O)/C=C/c1ccc(N)nc1
3. Cc1c(CNC(=O)/C=C/c2ccc(N)nc2)sc(-c2ccc(-c3ccc(C(=O)N4CC(F)C4)cc3)cc2-c2ccc(F)cc2)c1C
4. Nc1ccc(/C=C/C(=O)NCc2ccc(-c3ccc(-c4ccc(C(=O)N5CC(F)(F)C5)cn4)cc3C(F)(F)F)o2)cn1
5. Cc1c(CNC(=O)/C=C/c2ccc(N)nc2)sc(-c2ccc(-c3ccc(C(=O)N4CC(F)C4)cc3)cc2C(F)(F)F)c1C
6. Nc1ccc(/C=C/C(=O)NCc2cnc(-c3ccc(-c4ccc(C(=O)N5CC(F)C5)cc4)cc3C(F)(F)F)o2)cn1

< 1 µM
< 1 µM
1 to 5 µM
< 1 µM
> 10 µM
< 1 µM

----------
System: Z138 cells
procedure.summary: MTT cell proliferation assay, Z138 cells
Type: cell-based, human
measurement.context: Homo sapiens, Z-138, incubation approximately 64-72 hours
Kindly supply the reported IC50 values for the records listed here.

// worked examples, IC50 included
entry.smiles | IC50
Nc1ccc(/C=C/C(=O)NCc2cnc(-c3ccc(-c4ccc(C(=O)N5CC(F)C5)cc4)cc3C(F)(F)F)o2)cn1 | < 1 µM
Nc1ccc(/C=C/C(=O)NCc2cnc(-c3ccc(-c4ccc(C(=O)N5CC(F)(F)C5)cc4F)cc3C(F)(F)F)o2)cn1 | < 1 µM
Nc1ccc(/C=C/C(=O)NCc2ccc(-c3ccc(-c4ccc(C(=O)N5CC(F)(F)C5)cc4)cc3C(F)(F)F)o2)cn1 | < 1 µM
Cn1c(CNC(=O)/C=C/c2ccc(N)nc2)ccc1-c1ccc(-c2ccc(C(=O)N3CCC(F)(F)CC3)cc2)cc1-c1ccc(F)cc1 | > 10 µM
Nc1ccc(/C=C/C(=O)NCc2nnc(-c3ccc(-c4ccc(C(=O)N5CCC(F)(F)CC5)cc4)cc3-c3ccc(F)cc3)o2)cn1 | < 1 µM

Next compound, please.
Report IC50 from Z138 cells testing of Nc1ccc(/C=C/C(=O)NCc2ccc(-c3cc4c(C(=O)N5CCC(F)(F)CC5)c[nH]c4cc3C(F)(F)F)o2)cn1 < 1 µM

----------
Test system: Z138 cells
procedure.summary: MTT cell proliferation assay, Z138 cells
Assay type: cell-based, human
measurement.context: Homo sapiens, Z-138, incubation approximately 64-72 hours
pIC50: −log10 of the molar value.
recorded.metric: pIC50

molecule | result
Nc1ccc(/C=C/C(=O)NCc2cnc(-c3ccc(-c4ccc(C(=O)N5CC(F)(F)C5)cc4)cc3C(F)(F)F)o2)cn1 [Compound A019] | > 6.00

Below are 2 molecules. Give each one its pIC50.
1. Nc1ccc(/C=C/C(=O)NCc2ccc(-c3c(C(F)(F)F)cc(-c4ccc(C(=O)N5CC(F)(F)C5)cn4)cc3C(F)(F)F)o2)cn1 [Compound A025]
2. Nc1ccc(/C=C/C(=O)NCc2ccc(-c3cc4cc(C(=O)N5CCC(F)(F)CC5)cnc4cc3C(F)(F)F)o2)cn1 [Compound A026]

1. > 6.00
2. > 6.00
